Listing of entries alongside the reported IC50.
# measurement_target: CDK4/Cyclin D1 (Homo sapiens)
# Sequence (P11802 whole entry): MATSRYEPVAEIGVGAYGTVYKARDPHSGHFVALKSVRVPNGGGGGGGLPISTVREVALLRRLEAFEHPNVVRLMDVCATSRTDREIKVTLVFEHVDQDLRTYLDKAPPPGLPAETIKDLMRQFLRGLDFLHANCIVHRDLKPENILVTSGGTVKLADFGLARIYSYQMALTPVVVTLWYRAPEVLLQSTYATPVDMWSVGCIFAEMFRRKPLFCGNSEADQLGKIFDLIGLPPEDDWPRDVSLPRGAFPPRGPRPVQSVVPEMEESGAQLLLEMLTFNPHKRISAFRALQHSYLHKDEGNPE
# Sequence (P24385 whole entry partner): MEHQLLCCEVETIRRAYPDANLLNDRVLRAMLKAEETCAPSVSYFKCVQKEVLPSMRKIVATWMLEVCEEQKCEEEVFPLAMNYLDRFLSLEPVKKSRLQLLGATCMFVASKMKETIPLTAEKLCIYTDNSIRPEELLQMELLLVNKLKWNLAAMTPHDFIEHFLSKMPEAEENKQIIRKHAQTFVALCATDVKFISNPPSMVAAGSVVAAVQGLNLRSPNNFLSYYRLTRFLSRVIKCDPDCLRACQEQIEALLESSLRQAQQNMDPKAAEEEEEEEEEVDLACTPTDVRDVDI
# assay_method_text: inhibition of CDK4/Cyclin D1 kinase, TR-FRET
# applied_conditions: CDK4/Cyclin D1, 1 mM ATP, 0.15 μM Rb (Ser780)-biotin substrate, pH 7.0, 60 min preincubation, 120 min reaction, room temperature; read-out: CDK4D1 IC50
measured_metric: IC50

- C[C@H](N)c1ccnc2c(F)cc(-c3nc(N[C@@H]4CCOC[C@H]4O)ncc3F)cc12 [Example A6]: 32 nM
- Cc1cc(C(C)(C)O)c2cc(-c3nc(N[C@@H]4CCOC[C@H]4O)ncc3F)cc(F)c2n1 [Example A3]: 33 nM
- CC(C)(C)OC(=O)N1CCC(Nc2ncc(F)c(-c3cc(F)c4nccc(C(C)(C)O)c4c3)n2)CC1 [Example A4]: 171 nM
- CC(C)(O)c1ccnc2c(F)cc(-c3nc(NC4CCNCC4)ncc3F)cc12 [Example A5]: 83 nM
